Listing: inhibition of aggregation of selected compounds
assay.overview: reduction of polyQ htt aggregates in cells – imaging, exon1htt(103Q)mCFP cells, high-content imaging, primary screen (AID 483);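 note: compound exposure lasted 3 days before fixation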
recorded.conditions: exon1htt(103Q)mCFP cell line, aggregate imaging, at 2 µM; hits give high values
Value expressed in %; do not type the unit.

Worked examples follow.
CCCCNC(=O)c1nc2ncc(Br)cn2n1 :: -12.4
COCCCNC(=O)CCn1c(=O)c2ccccc2n(CC(=O)Nc2ccc(C)cc2C)c1=O :: -6.5
CCCc1nnc(SCC(=O)N2CCOCC2)n1Cc1ccco1 :: -10.6
CCN(CC)C(=O)C1CCCc2c1[nH]c1ccc(Cl)cc21 (stereo unspecified) :: -0.9

The value of inhibition of aggregation measured for the compound `CCOC(=O)N1CCN(S(=O)(=O)c2ccc(OCC)c(C)c2)CC1` turned out to be -7.7

The value of inhibition of aggregation measured for the compound `COC(=O)c1cn(NC(=O)c2cccnc2)c(=O)c2ccccc12` turned out to be -32.8
